Target: HLA-DRB1*0401 (Homo sapiens (Human), UniProt P01903+P01911, A100K/A169T/DEL228-266/F76Y/I96L/K127E/L162R/M171V/N62H/P40V/Q125Y/R42H/S133A/S149N/S66Y/V115G/V209L/W38E)
Experiment: HLA-DR4 HTRF assay
Conditions: inhibition of loading of Alexa Fluor 647-labeled Cit-CII peptide onto HLA-DR4 (CLIP cleaved)
Mark Y only for IC50 values smaller than 700 nM; exact matches and larger values are N.

{"COMPOUND": "C[C@H]1COc2cc(O[C@@H](c3ccncc3)c3ccc(C(N)=O)cc3)ccc2C1=O (single isomer, unassigned) [Example 44c]", "LABEL": "N"}
{"COMPOUND": "Cc1cc([C@@H](Oc2c(F)cc3c(c2C)OCCC3=O)c2ccc(C(N)=O)cc2)cc(C)n1 (single isomer, unassigned) [Example 94b]", "LABEL": "Y"}
{"COMPOUND": "Cc1c(O[C@H](c2ccc(C(N)=O)cc2)c2ccc(C(=O)O)cc2)ccc2c1OCCC2=O (single isomer, unassigned) [Example 71a]", "LABEL": "N"}
{"COMPOUND": "CC(C)c1c(O[C@H](c2ccc(C(N)=O)cc2)c2cccc(C#N)c2)ccc2c1OCCC2=O (single isomer, unassigned) [Example 107a]", "LABEL": "N"}
{"COMPOUND": "Cc1c(O[C@@H](c2ccccc2)c2ccc(C(N)=O)cc2)ccc2c1OCCC2=O (single isomer, unassigned) [Example 69b]", "LABEL": "N"}
{"COMPOUND": "Cc1c(O[C@@H](c2ccc(C#N)cc2)c2ccc(C(N)=O)cc2)ccc2c1OCCC2=O (single isomer, unassigned) [Example 59b]", "LABEL": "N"}
{"COMPOUND": "Cc1cc([C@H](Oc2cc3c(cc2F)C(=O)CCO3)c2ccc(C(N)=O)cc2)cc(C)n1 (single isomer, unassigned) [Example 109a]", "LABEL": "Y"}

###

Molecular target: HLA-DRB1*0401 (Homo sapiens (Human), UniProt P01903+P01911, A100K/A169T/DEL228-266/F76Y/I96L/K127E/L162R/M171V/N62H/P40V/Q125Y/R42H/S133A/S149N/S66Y/V115G/V209L/W38E)
Assay: HLA-DR4 HTRF assay
Details: inhibition of loading of Alexa Fluor 647-labeled Cit-CII peptide onto HLA-DR4 (CLIP cleaved)
pIC50: −log10 of the molar value.
Listed here are compounds together with their documented pIC50.
READOUT: pIC50

{"COMPOUND": "Cc1c(O[C@H](c2ccncc2)c2cccc(S(C)(=O)=O)c2)c(F)cc2c1OCCC2=O (single isomer, unassigned) [Example 105a]", "RESULT NUMBER": 6.70}
{"COMPOUND": "CC[C@H]1COc2cc(O[C@@H](c3ccncc3)c3ccc(C(N)=O)cc3)ccc2C1=O (single isomer, unassigned) [Example 46b]", "RESULT NUMBER": 5.89}
{"COMPOUND": "CC[C@@H]1CC(=O)c2ccc(O[C@H](c3ccncc3)c3ccc(C(N)=O)cc3)cc2O1 (single isomer, unassigned) [Example 41a]", "RESULT NUMBER": 5.92}
{"COMPOUND": "COc1ccc(C(Oc2ccc3c(c2)OCCC3=O)c2ccncc2)cc1 (racemic) [Example 12]", "RESULT NUMBER": 5.92}

###

Biological target: HLA-DRB1*0401 (Homo sapiens (Human), UniProt P01903+P01911, A100K/A169T/DEL228-266/F76Y/I96L/K127E/L162R/M171V/N62H/P40V/Q125Y/R42H/S133A/S149N/S66Y/V115G/V209L/W38E)
Test: HLA-DR4 HTRF assay
Details: inhibition of loading of Alexa Fluor 647-labeled Cit-CII peptide onto HLA-DR4 (CLIP cleaved)
pIC50: −log10 of the molar value.
In this section, each of the compounds is paired with its reported pIC50.
READOUT: pIC50

{"COMPOUND": "COc1ccccc1C(Oc1ccc2c(c1)OCCC2=O)c1ccncc1 (racemic)", "READOUT": "pIC50", "RESULT NUMBER": 5.62}
{"COMPOUND": "NC(=O)c1cccc([C@H](Oc2ccc3c(c2)OCCC3=O)c2ccncc2)c1 (single isomer, unassigned)", "READOUT": "pIC50", "RESULT NUMBER": 6.01}
{"COMPOUND": "NC(=O)c1ccc([C@H](Oc2ccc3c(c2)OCCC3=O)c2ccncc2-c2ccccc2)cc1 (single isomer, unassigned) [Example 25b]", "READOUT": "pIC50", "RESULT NUMBER": 6.31}
{"COMPOUND": "NC(=O)c1ccc([C@@H](Oc2ccc3c(c2)OCCC3=O)c2ccncc2)cc1 (single isomer, unassigned) [Example 11a]", "READOUT": "pIC50", "RESULT NUMBER": 6.14}
{"COMPOUND": "Cc1c(O[C@H](c2ccc(C(N)=O)cc2)c2ccc(Cl)cn2)ccc2c1OCCC2=O (single isomer, unassigned) [Example 62a]", "READOUT": "pIC50", "RESULT NUMBER": 5.82}
{"COMPOUND": "O=C1CCOc2cc(OC(c3ccccc3)c3ccncc3)ccc21 (racemic)", "READOUT": "pIC50", "RESULT NUMBER": 5.47}
{"COMPOUND": "COc1cc([C@H](Oc2ccc3c(c2)OCCC3=O)c2ccc(C(N)=O)cc2)ccn1 (single isomer, unassigned) [Example 24a]", "READOUT": "pIC50", "RESULT NUMBER": 5.85}
{"COMPOUND": "O=C1CCOc2cc(O[C@@H](c3ccncc3)C3CCCCC3)ccc21 (single isomer, unassigned) [Example 38a]", "READOUT": "pIC50", "RESULT NUMBER": 5.34}
{"COMPOUND": "Cc1cc([C@H](Oc2ccc3c(c2)OCCC3=O)c2ccc(C(N)=O)cc2)ccn1 (single isomer, unassigned) [Example 15a]", "READOUT": "pIC50", "RESULT NUMBER": 6.36}
{"COMPOUND": "NC(=O)c1ccc([C@H](Oc2ccc3c(c2-c2ccc(-c4ccccc4)cc2)OCCC3=O)c2ccncc2)cc1 (single isomer, unassigned) [Example 79b]", "READOUT": "pIC50", "RESULT NUMBER": 4.31}
{"COMPOUND": "Cc1c(O[C@H](c2ccc(C(N)=O)cc2)c2ccccc2F)ccc2c1OCCC2=O (single isomer, unassigned) [Example 68a]", "READOUT": "pIC50", "RESULT NUMBER": 5.82}
{"COMPOUND": "Cc1c(O[C@@H](c2ccc(C(N)=O)cc2)c2ccc(Cl)cn2)ccc2c1OCCC2=O (single isomer, unassigned) [Example 62b]", "READOUT": "pIC50", "RESULT NUMBER": 5.85}
{"COMPOUND": "NC(=O)c1ccc([C@@H](Oc2ccc3c(c2F)OCCC3=O)c2ccncc2)cc1 (single isomer, unassigned) [Example 50a]", "READOUT": "pIC50", "RESULT NUMBER": 5.72}
{"COMPOUND": "CCc1c(O[C@@H](c2ccncc2)c2ccc(C(N)=O)cc2)ccc2c1OCCC2=O (single isomer, unassigned) [Example 73a]", "READOUT": "pIC50", "RESULT NUMBER": 6.27}
{"COMPOUND": "N#Cc1ccc(C(Oc2ccc3c(c2)OCCC3=O)c2ccncc2)cc1 (racemic)", "READOUT": "pIC50", "RESULT NUMBER": 6.11}
{"COMPOUND": "Cc1c(O[C@@H](c2ccc(C(N)=O)cc2)c2cccc(C#N)c2)c(F)cc2c1OCCC2=O (single isomer, unassigned) [Example 92b]", "READOUT": "pIC50", "RESULT NUMBER": 6.72}
{"COMPOUND": "Cc1cc([C@@H](Oc2cc3c(cc2F)C(=O)CCO3)c2ccc(C(N)=O)cc2)cc(C)n1 (single isomer, unassigned) [Example 109b]", "READOUT": "pIC50", "RESULT NUMBER": 6.64}
{"COMPOUND": "Cc1c(O[C@@H](c2ccncc2)c2ccc(C(N)=O)cc2)ccc2c1OCCC2=O (single isomer, unassigned) [Example 48a]", "READOUT": "pIC50", "RESULT NUMBER": 6.17}
{"COMPOUND": "Cc1c(O[C@@H](c2ccncc2)c2ccc(S(C)(=O)=O)cc2)c(F)cc2c1OCCC2=O (single isomer, unassigned) [Example 104a]", "READOUT": "pIC50", "RESULT NUMBER": 6.54}
{"COMPOUND": "CN(C)C(=O)c1ccc([C@H](Oc2ccc3c(c2)OCCC3=O)c2ccncc2)cc1 (single isomer, unassigned) [Example 72b]", "READOUT": "pIC50", "RESULT NUMBER": 6.16}
{"COMPOUND": "NC(=O)c1ccc([C@H](Oc2ccc3c(c2-c2ccccc2)OCCC3=O)c2ccncc2)cc1 (single isomer, unassigned) [Example 53b]", "READOUT": "pIC50", "RESULT NUMBER": 6.22}
{"COMPOUND": "Cc1c(O[C@H](c2ccccc2)c2ccc(C(=O)O)cc2)ccc2c1OCCC2=O (single isomer, unassigned) [Example 70a]", "READOUT": "pIC50", "RESULT NUMBER": 5.89}
